System Under Test: Platelet-derived growth factor receptor (PDGFr) (Rattus norvegicus, UniProt P20786+Q05030)
Protocol Summary: Inhibition of PDGF-stimulated Platelet-derived growth factor receptor autophosphorylation in rat aorta vascular smooth muscle cells.
Assay type: functional
Endpoint: IC50 (µM)
The reply should be a number in µM, with the unit left off.

> print(dat)
             smiles.structure  endpoint  unit.of.measure  reported.measurement
1  COc1ccc2c(c1)ncn2-c1ccccc1      IC50               µM                   1.9
2    c1ccc(-n2cnc3ccccc32)cc1      IC50               µM                   2.3
3   Nc1ccc(-n2cnc3ccccc32)cc1      IC50               µM                     2
4   Oc1ccc2c(c1)ncn2-c1ccccc1      IC50               µM                  0.13

We now examine a further compound.
IN: Fill in the blank: the reported IC50 of COC(=O)c1ccc2c(c1)ncn2-c1ccccc1 is ____.
OUT: 0.15

----------
Here, each record is paired with measured pIC50 data.
System Under Test: Platelet-derived growth factor receptor beta (Mus musculus, UniProt P05622)
Sequence (P05622 whole entry): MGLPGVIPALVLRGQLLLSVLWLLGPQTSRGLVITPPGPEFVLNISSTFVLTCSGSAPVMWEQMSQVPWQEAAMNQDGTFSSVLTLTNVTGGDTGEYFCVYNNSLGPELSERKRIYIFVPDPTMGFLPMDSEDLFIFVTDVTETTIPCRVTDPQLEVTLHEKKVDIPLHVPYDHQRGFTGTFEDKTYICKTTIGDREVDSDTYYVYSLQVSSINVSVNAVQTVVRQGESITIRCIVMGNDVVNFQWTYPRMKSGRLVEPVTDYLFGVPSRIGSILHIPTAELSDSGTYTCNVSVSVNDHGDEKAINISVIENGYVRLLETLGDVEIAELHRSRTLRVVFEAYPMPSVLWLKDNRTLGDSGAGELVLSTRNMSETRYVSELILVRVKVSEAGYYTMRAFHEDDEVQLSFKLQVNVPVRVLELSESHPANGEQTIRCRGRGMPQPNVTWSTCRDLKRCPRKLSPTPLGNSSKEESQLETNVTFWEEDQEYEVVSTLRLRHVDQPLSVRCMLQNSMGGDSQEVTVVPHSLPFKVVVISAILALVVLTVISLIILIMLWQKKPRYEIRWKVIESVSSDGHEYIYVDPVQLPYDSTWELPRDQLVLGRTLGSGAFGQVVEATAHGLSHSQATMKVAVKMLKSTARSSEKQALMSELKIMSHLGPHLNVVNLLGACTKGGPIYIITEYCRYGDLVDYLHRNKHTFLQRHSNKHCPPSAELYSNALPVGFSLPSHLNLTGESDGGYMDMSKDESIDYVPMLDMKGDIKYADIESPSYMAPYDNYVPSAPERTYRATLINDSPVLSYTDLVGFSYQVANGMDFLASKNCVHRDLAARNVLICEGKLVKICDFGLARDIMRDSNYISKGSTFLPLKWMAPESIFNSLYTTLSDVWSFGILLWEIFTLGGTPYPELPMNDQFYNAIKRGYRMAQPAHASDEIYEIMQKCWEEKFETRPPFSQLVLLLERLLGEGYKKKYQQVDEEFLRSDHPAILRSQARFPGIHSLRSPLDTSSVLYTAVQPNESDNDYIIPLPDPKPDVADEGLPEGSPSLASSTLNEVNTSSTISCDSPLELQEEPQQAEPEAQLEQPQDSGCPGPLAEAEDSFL
Protocol Summary: Inhibition of phosphorylation of a random glutamate/tyrosine copolymer in lysates of transfected Sf9 insect cells overexpressing mouse platelet-derived growth factor receptor beta
In plain terms, pIC50 is the concentration in mol/L turned into minus its base-10 logarithm.

Below, each entry is followed by its recorded pIC50 result.
> print(dat)
                       smiles.structure  reported.measurement
1        CC(=O)c1ccc2c(c1)ncn2-c1ccccc1                  6.07
2  O=[N+]([O-])c1ccc(-n2cnc3ccccc32)cc1                  4.52
3            COc1ccc(-n2cnc3ccccc32)cc1                  4.89

We now examine a further compound.
IN: Fill in the blank: the reported pIC50 of CC(=O)c1cccc(-n2cnc3ccccc32)c1 is ____.
OUT: 4.72

----------
Here, each record is paired with measured IC50 data.
System Under Test: Fibroblast growth factor receptor 1 (Homo sapiens)
Sequence (P11362 whole entry): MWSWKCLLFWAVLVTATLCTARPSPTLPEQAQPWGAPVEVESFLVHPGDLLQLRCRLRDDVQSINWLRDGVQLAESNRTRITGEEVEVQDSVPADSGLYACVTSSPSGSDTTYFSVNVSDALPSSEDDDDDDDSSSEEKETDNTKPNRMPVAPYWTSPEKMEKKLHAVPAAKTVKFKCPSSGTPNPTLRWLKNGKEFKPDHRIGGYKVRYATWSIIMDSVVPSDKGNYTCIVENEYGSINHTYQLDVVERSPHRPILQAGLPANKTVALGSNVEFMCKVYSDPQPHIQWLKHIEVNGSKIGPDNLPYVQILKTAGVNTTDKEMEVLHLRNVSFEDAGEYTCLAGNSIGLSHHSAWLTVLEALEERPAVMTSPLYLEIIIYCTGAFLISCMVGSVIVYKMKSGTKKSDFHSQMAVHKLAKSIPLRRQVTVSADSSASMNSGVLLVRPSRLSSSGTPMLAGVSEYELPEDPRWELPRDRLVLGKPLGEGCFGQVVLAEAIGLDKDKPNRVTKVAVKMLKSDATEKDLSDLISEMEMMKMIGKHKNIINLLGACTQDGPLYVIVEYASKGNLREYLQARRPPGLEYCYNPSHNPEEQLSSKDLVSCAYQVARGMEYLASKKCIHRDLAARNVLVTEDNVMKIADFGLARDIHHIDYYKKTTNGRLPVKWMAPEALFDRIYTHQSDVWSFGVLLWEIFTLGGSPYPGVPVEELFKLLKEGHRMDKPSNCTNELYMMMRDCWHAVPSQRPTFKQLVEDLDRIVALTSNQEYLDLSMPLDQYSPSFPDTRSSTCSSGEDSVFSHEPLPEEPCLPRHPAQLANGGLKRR
Protocol Summary: Inhibition of phosphorylation of a random glutamate/tyrosine copolymer in lysates of transfected Sf9 insect cells overexpressing human fibroblast growth factor receptor 1

> print(dat)
                  smiles.structure  reported.measurement
1          Oc1cccc2c1ncn2-c1ccccc1               > 50 µM
2  COC(=O)c1ccc(-n2cnc3ccccc32)cc1                 50 µM

IN: Fill in the blank: the reported IC50 of O=[N+]([O-])c1cccc2ncn(-c3ccccc3)c12 is ____.
OUT: 40 µM

IN: How about this compound: Oc1nc2ccccc2n1-c1ccccc1
OUT: > 50 µM

IN: How about this compound: NC(=O)c1ccc2ncn(-c3ccccc3)c2c1
OUT: > 50 µM

IN: How about this compound: N#Cc1ccccc1-n1cnc2ccccc21
OUT: > 50 µM

IN: How about this compound: Cc1cccc(-n2cnc3ccccc32)c1
OUT: > 50 µM

----------
System Under Test: UniProt:P05622
Protocol Summary: Inhibition of phosphorylation of a random glutamate/tyrosine copolymer in lysates of transfected Sf9 insect cells overexpressing mouse platelet-derived growth factor receptor beta
Endpoint: pIC50
In plain terms, pIC50 is the concentration in mol/L turned into minus its base-10 logarithm.

> print(dat)
             smiles.structure  reported.measurement
1  COc1cccc(-n2cnc3ccccc32)c1                  4.60

IN: Which measured pIC50 belongs to COc1ccc2c(c1)ncn2-c1ccccc1 , tested on UniProt:P05622?
OUT: 6.37

IN: How about this molecule: N#Cc1ccc(-n2cnc3ccccc32)cc1
OUT: 4.80

IN: How about this molecule: c1ccc(-n2cnc3cccnc32)cc1
OUT: 4.55
